Measured values drawn from patent US20090118167A1 for this set.

Target: T1, rat VPAC1 receptor (rat, UniProt P30083 31-459)
T1 sequence (looked up): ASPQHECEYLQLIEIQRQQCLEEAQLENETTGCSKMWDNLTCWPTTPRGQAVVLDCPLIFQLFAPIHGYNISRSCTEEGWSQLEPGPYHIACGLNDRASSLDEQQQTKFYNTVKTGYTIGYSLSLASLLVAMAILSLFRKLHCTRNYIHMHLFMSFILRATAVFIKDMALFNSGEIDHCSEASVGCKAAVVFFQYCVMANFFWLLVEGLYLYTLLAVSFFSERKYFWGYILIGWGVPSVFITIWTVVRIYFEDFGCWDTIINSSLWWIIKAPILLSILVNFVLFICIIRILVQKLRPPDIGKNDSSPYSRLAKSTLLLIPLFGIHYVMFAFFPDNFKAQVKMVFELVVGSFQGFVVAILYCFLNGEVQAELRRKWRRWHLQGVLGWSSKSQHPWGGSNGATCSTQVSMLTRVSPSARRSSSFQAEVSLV
Test: cell-based or functional assay
Square brackets hold non-standard residues; d marks the D form. Ends that are not written are not given here. Nle = CCCC[C@H](N)C(=O)O; Orn = NCCC[C@H](N)C(=O)O; Aib = CC(C)(N)C(=O)O
Friendly reminder: EC50 for cAMP generation, DiscoveRx, CHO-PO cells below 30 nM is 1, at or above is -1.

[
  {
    "binder": "HSDAVFTENYTKL[Aib]KQ[Nle]AAKKYLNDLKQGGPSSGAPPPC (ends and bridges not checked; also: further groups not given here) [P255 (cyclic PEGylated VPAC2 receptor peptide agonist)]",
    "class": -1
  },
  {
    "binder": "HSDAVFTENYT[Orn]LR[Aib]Q[Nle]AA[Orn]KYLNDL[Orn][Orn]GGPSSGAPPPC (not fully specified (residue 39); also: cyclic, bridge type and places not given here, PEGylated, site not placed) [P376 (cyclic PEGylated VPAC2 receptor peptide agonist)]",
    "class": -1
  },
  {
    "binder": "HSDAVFTENYT[Orn]LR[Aib]Q[Nle]AA[Orn]KYLNDL[Orn][Orn]GGPSSGAPPPC (also: cyclic by a side-chain bridge (lactam or disulfide), places not given here, PEGylated, site not given here) [P463 (cyclic PEGylated VPAC2 receptor peptide agonist)]",
    "class": -1
  }
]

In: Is EC50 for cAMP generation, DiscoveRx, CHO-PO cells strictly under 30 nM for the entry HSDAVFTENYTKLRKQ[Nle]AAKKYLNDLKKGGPSSGAPPPC (not fully specified (residue 39); ends and bridges not checked; also: further groups not given here) [P201 (cyclic PEGylated VPAC2 receptor peptide agonist)] ?
Out: 1

In: Is EC50 for cAMP generation, DiscoveRx, CHO-PO cells strictly under 30 nM for the entry HSDAVFTENYTKLRKQ[Nle]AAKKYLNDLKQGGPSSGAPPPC (ends and bridges not checked; also: further groups not given here) [P239 (cyclic PEGylated VPAC2 receptor peptide agonist)] ?
Out: 1

In: Is EC50 for cAMP generation, DiscoveRx, CHO-PO cells strictly under 30 nM for the entry HSDAVFTENYTKL[Aib]KQ[Nle]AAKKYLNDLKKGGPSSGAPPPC (ends and bridges not checked; also: further groups not given here) [P257 (cyclic PEGylated VPAC2 receptor peptide agonist)] ?
Out: -1

In: Is EC50 for cAMP generation, DiscoveRx, CHO-PO cells strictly under 30 nM for the entry HSDAVFTENYTKLR[Aib]Q[Nle]AAKKYLNDLK[Aib]KGGPSSGAPPPC (also: further groups not given here) [P348 (cyclic PEGylated VPAC2 receptor peptide agonist)] ?
Out: -1
